Examples of molecules with documented % Viability at 20 μg/mL follow.
- System: Jurkat cells
- assay-summary: Cell cytotoxicity assay (Jurkat cell viability)
- Format: cell-based, human
- condition-context: 20 μg/mL, 24 hours
- Protocol: 1×10^5 Jurkat cells (immortalised human T lymphocytes) are added to the appropriate number of wells of a 96 well plate in 100 μL of media (RPMI supplemented with 10% foetal bovine serum). […] After 15 minutes, cells are analysed by flow cytometry (BD accuri) using the FL3 window. The % viability is calculated as the % of cells that are PI negative in the test wells normalised to the DMSO control.
Give the number; % is assumed, so skip it.

chemical-smiles	target-of-assay	% Viability at 20 μg/mL [%]
COc1cc(Nc2ncc3cc(-c4cc(C(=O)Nc5cc(C(C)(C)C)cc(NS(C)(=O)=O)c5OC)ccc4C)ccc3n2)ccc1C(=O)N1CCS(=O)(=O)CC1	Jurkat cells	81.0
COc1cc(Nc2ncc3cc(-c4cc(C(=O)Nc5cc(C(C)(C)C)cc(NS(C)(=O)=O)c5OC)ccc4C)ccc3n2)cc(C(=O)NCCN2CCOCC2)c1	Jurkat cells	44.6
COc1cc(Nc2ncc3cc(-c4cc(C(=O)Nc5cc(C(C)(C)C)cc(NS(C)(=O)=O)c5OC)ccc4C)ccc3n2)ccc1C(=O)N(C)CCN1CCOCC1	Jurkat cells	28.7
COc1cc(Nc2ncc3cc(-c4cc(C(=O)Nc5cc(C(C)(C)C)cc(NS(C)(=O)=O)c5OC)ccc4C)ccc3n2)ccc1C(=O)O	Jurkat cells	30.6
COc1c(NC(=O)c2ccc(C)c(-c3ccc4nc(Nc5cccc(CP(C)(C)=O)c5)ncc4c3)c2)cc(C(C)(C)C)cc1NS(C)(=O)=O	Jurkat cells	2.1

Attention now turns to another entry.
GET /values?readout=% Viability at 20 μg/mL&item= `COc1c(NC(=O)c2ccc(C)c(-c3ccc4nc(Nc5cc(OS(C)(=O)=O)cc(C(=O)NCCN6CCOCC6)c5)ncc4c3)c2)cc(C(C)(C)C)cc1NS(C)(=O)=O`
77.8

----------
- target-of-assay: c-Src (Homo sapiens, UniProt P12931)
- Sequence (P12931 whole entry): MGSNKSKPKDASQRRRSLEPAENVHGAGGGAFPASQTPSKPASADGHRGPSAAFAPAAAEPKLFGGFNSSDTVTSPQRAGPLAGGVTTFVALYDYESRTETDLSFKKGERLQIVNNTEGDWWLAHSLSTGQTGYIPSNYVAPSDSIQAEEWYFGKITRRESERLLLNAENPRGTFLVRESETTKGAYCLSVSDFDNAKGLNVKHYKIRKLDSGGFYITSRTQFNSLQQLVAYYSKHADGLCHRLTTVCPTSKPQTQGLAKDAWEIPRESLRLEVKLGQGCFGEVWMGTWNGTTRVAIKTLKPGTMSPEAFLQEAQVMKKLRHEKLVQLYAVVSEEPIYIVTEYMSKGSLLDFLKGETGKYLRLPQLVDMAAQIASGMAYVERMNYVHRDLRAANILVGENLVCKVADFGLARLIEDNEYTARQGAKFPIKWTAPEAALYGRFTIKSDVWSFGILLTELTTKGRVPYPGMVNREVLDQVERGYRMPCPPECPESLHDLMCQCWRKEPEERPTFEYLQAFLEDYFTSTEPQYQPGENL
value-type: IC50
Answer by giving the amount and then stating its unit.

Solved cases (3 shown):
compound	value-type	meas-value
COCCOCCOCCOc1cc(Nc2ncc3cc(-c4cc(C(=O)Nc5cccc(C(F)(F)F)c5)ccc4C)ccc3n2)cc(OC)c1 [Example 1]	IC50	14 nM
COc1cc(Nc2ncc3cc(-c4cc(C(=O)Nc5cc(C(C)(C)C)cc(C(N)=O)c5OC)ccc4C)ccc3n2)cc(C(=O)NCCN2CCOCC2)c1 [Example 3]	IC50	18 nM
COCCOCCOCCOc1cc(Nc2ncc3cc(-c4cc(C(=O)Nc5cc(C(C)(C)C)cc(NS(C)(=O)=O)c5OC)ccc4C)ccc3n2)cc(OC)c1 [Example 2]	IC50	27 nM

From here, focus on the item given below.
Find IC50 (c-Src (Homo sapiens, UniProt P12931)) for the entry COc1cc(Nc2ncc3cc(-c4cc(C(=O)Nc5cc(C(C)(C)C)cc(NS(C)(=O)=O)c5OC)ccc4C)ccc3n2)ccc1C(=O)N1CCS(=O)(=O)CC1 [Example 12]
4 nM

----------
Parameter % Viability at 1 μg/mL: see the listing below.
- Tested on: Jurkat cells
- assay-summary: Cell cytotoxicity assay (Jurkat cell viability)
- Format: cell-based, human
- condition-context: 1 μg/mL, 24 hours
Write down the numeric answer in % and omit the unit.

Illustrative cases are given below, each with its answer.
compound	scale-unit	% Viability at 1 μg/mL
COc1cc(Nc2ncc3cc(-c4cc(C(=O)Nc5cc(C(C)(C)C)cc(NS(C)(=O)=O)c5OC)ccc4C)ccc3n2)ccc1C(=O)N1CCS(=O)(=O)CC1 [Example 12]	%	86.4
COc1cc(Nc2ncc3cc(-c4cc(C(=O)Nc5cc(C(C)(C)C)cc(NS(C)(=O)=O)c5OC)ccc4C)ccc3n2)cc(C(=O)NCCN2CCOCC2)c1 [Example 5]	%	116.5
COCC(=O)Nc1cc(Oc2ccc(NC(=O)Nc3cc(C(C)(C)C)nn3-c3ccc(C)cc3)c3ccccc23)ccn1 [Reference Compound A, reference compound]	%	23.5

Item COc1c(NC(=O)c2ccc(C)c(-c3ccc4nc(Nc5cccc(CP(C)(C)=O)c5)ncc4c3)c2)cc(C(C)(C)C)cc1NS(C)(=O)=O [14(i)] with Jurkat cells - % Viability at 1 μg/mL?
69.8

// map COc1cc(Nc2ncc3cc(-c4cc(C(=O)Nc5cc(C(C)(C)C)cc(NS(C)(=O)=O)c5OC)ccc4C)ccc3n2)ccc1C(=O)O [Example 8] to recorded % Viability at 1 μg/mL (system: Jurkat cells)
91.1

Can you look up % Viability at 1 μg/mL on Jurkat cells for COc1cc(Nc2ncc3cc(-c4cc(C(=O)Nc5cc(C(C)(C)C)cc(C(N)=O)c5OC)ccc4C)ccc3n2)cc(C(=O)NCCN2CCOCC2)c1 [Example 3] ?
100.4

Under Jurkat cells: % Viability at 1 μg/mL value of C#Cc1cc(Nc2ncc3cc(-c4cc(C(=O)Nc5cc(C(C)(C)C)cc(NS(C)(=O)=O)c5OC)ccc4C)ccc3n2)cc(C(=O)NCCOCCOCCOC)c1 [14(g)] ?
110.1

I'm curious: which % Viability at 1 μg/mL was measured for COc1cc(Nc2ncc3cc(-c4cc(C(=O)Nc5cc(C(C)(C)C)cc(NS(C)(=O)=O)c5OC)ccc4C)ccc3n2)ccc1C(=O)N(C)CCN1CCOCC1 [Example 9] tested on Jurkat cells?
63.0

Can you look up % Viability at 1 μg/mL on Jurkat cells for COc1c(NC(=O)c2ccc(C)c(-c3ccc4nc(Nc5cc(OS(C)(=O)=O)cc(C(=O)NCCN6CCOCC6)c5)ncc4c3)c2)cc(C(C)(C)C)cc1NS(C)(=O)=O [Example 10] ?
91.5

Any idea what % Viability at 1 μg/mL came out for COc1c(NC(=O)c2ccc(C)c(-c3ccc4nc(Nc5ccc(N=S(C)(C)=O)cc5)ncc4c3)c2)cc(C(C)(C)C)cc1NS(C)(=O)=O [Example 7] on Jurkat cells?
79.0

----------
Reported % Viability at 5 μg/mL values are given for each entry in this list.
- Test system: Jurkat cells
- assay-summary: Cell cytotoxicity assay (Jurkat cell viability)
- Assay type: cell-based, human
- condition-context: 5 μg/mL, 24 hours
Write the value in % as a bare number.

// worked examples, % Viability at 5 μg/mL included
compound	target-of-assay	scale-unit	% Viability at 5 μg/mL
COc1c(NC(=O)c2ccc(C)c(-c3ccc4nc(Nc5cc(OS(C)(=O)=O)cc(C(=O)NCCN6CCOCC6)c5)ncc4c3)c2)cc(C(C)(C)C)cc1NS(C)(=O)=O [Example 10]	Jurkat cells	%	82.5
COc1cc(Nc2ncc3cc(-c4cc(C(=O)Nc5cc(C(C)(C)C)cc(C(N)=O)c5OC)ccc4C)ccc3n2)cc(C(=O)NCCN2CCOCC2)c1 [Example 3]	Jurkat cells	%	82.9
COc1cc(Nc2ncc3cc(-c4cc(C(=O)Nc5cc(C(C)(C)C)cc(NS(C)(=O)=O)c5OC)ccc4C)ccc3n2)ccc1C(=O)N1CCS(=O)(=O)CC1 [Example 12]	Jurkat cells	%	79.3
COCC(=O)Nc1cc(Oc2ccc(NC(=O)Nc3cc(C(C)(C)C)nn3-c3ccc(C)cc3)c3ccccc23)ccn1 [Reference Compound A, reference compound]	Jurkat cells	%	18.9
COc1cc(Nc2ncc3cc(-c4cc(C(=O)Nc5cc(C(C)(C)C)cc(NS(C)(=O)=O)c5OC)ccc4C)ccc3n2)ccc1C(=O)O [Example 8]	Jurkat cells	%	65.8

Entry C#Cc1cc(Nc2ncc3cc(-c4cc(C(=O)Nc5cc(C(C)(C)C)cc(NS(C)(=O)=O)c5OC)ccc4C)ccc3n2)cc(C(=O)NCCOCCOCCOC)c1 [14(g)] : reported % Viability at 5 μg/mL = ?
75.5

----------
# maps each entry to its % Viability at 5 μg/mL
- System: Jurkat cells
- assay-summary: Cell cytotoxicity assay (Jurkat cell viability)
- Assay type: cell-based, human
- condition-context: 5 μg/mL, 24 hours
Unit % implied. Number only.

# count of solved cases: 3
chemical-smiles	% Viability at 5 μg/mL (%)
COc1cc(Nc2ncc3cc(-c4cc(C(=O)Nc5cc(C(C)(C)C)cc(NS(C)(=O)=O)c5OC)ccc4C)ccc3n2)cc(C(=O)NCCN2CCOCC2)c1	48.8
COc1c(NC(=O)c2ccc(C)c(-c3ccc4nc(Nc5cccc(CP(C)(C)=O)c5)ncc4c3)c2)cc(C(C)(C)C)cc1NS(C)(=O)=O	8.4
COc1cc(Nc2ncc3cc(-c4cc(C(=O)Nc5cc(C(C)(C)C)cc(NS(C)(=O)=O)c5OC)ccc4C)ccc3n2)ccc1C(=O)N(C)CCN1CCOCC1	38.4

--- query ---
Could you tell me which % Viability at 5 μg/mL is on file for `COc1c(NC(=O)c2ccc(C)c(-c3ccc4nc(Nc5ccc(N=S(C)(C)=O)cc5)ncc4c3)c2)cc(C(C)(C)C)cc1NS(C)(=O)=O` ?
54.7
